Recorded pIC50, one value per entry.
target.entity: Histamine H3 receptor (Homo sapiens, UniProt Q9Y5N1)
Sequence (Q9Y5N1 whole entry): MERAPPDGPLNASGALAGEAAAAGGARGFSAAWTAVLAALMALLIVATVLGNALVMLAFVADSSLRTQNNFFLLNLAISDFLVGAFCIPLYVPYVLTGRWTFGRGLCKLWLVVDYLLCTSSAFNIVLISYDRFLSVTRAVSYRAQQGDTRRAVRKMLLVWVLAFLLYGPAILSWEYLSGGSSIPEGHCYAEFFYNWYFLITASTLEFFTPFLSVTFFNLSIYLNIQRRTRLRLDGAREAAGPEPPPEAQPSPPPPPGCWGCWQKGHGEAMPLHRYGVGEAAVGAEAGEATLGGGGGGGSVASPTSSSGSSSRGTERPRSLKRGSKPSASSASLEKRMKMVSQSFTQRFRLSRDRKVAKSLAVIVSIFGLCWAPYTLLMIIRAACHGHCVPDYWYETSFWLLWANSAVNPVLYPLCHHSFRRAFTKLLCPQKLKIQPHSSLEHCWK
assay.summary: Inverse agonist activity at human cloned histamine H3 receptor assessed as inhibition of (R)-alpha-methylhistamine-induced [35S]GTPgammaS binding
# reply with the number alone; pIC50 is -log10 of concentration in mol/L

Measured pIC50 for this entry CN(CCN1CCCCC1)C(=O)N1CCC(C#N)(c2ccccc2)CC1 on Histamine H3 receptor (Homo sapiens, UniProt Q9Y5N1): 6.57

I looked up COc1cccc2c1[C@]1(CC[C@@H](C(=O)N(C)CCN3CCCCC3)CC1)OC2=O and its pIC50 for Histamine H3 receptor (Homo sapiens, UniProt Q9Y5N1) was 8.44

Summary: CN(CCN1CCCCC1)C(=O)N1CCN(c2ccc(Cl)cc2)CC1 , Histamine H3 receptor (Homo sapiens, UniProt Q9Y5N1), pIC50 = 6.80

The reported Histamine H3 receptor (Homo sapiens, UniProt Q9Y5N1) pIC50 of CN(CCN1CCCCC1)C(=O)N1CCC(c2cccc3ccccc23)CC1 is 6.46

// compound CN(CCN1CCCCC1)C(=O)[C@H]1CC[C@@]2(CC1)OC(=O)c1ccccc12 , assay Histamine H3 receptor (Homo sapiens, UniProt Q9Y5N1), pIC50 value: 9.14

# pIC50 measured on Histamine H3 receptor (Homo sapiens, UniProt Q9Y5N1) for item CN(CCN1CCCCC1)C(=O)N1CCC2(CC1)Cc1ccccc1C2 = 6.28

Item COc1ccc2c(c1)[C@]1(CC[C@@H](C(=O)N(C)CCN3CCCCC3)CC1)OC2=O was tested on Histamine H3 receptor (Homo sapiens, UniProt Q9Y5N1); the reported pIC50 is 7.74

pIC50 value, target or system Histamine H3 receptor (Homo sapiens, UniProt Q9Y5N1), for COc1ccc2c(c1)C(=O)O[C@]21CC[C@H](C(=O)N(C)CCN2CCCCC2)CC1 : 9.27
